- Method: Pharmacokinetic study in CD-1 mice (plasma and brain)
- Format: in vivo
- Study Conditions: male, mouse, po, IG 5 mg/kg, plasma
Metric: AUC(0-inf) (ng·h/mL)
Return type: number; implicit unit ng·h/mL.

Measured AUC(0-inf), C[C@@]1(O)CC[C@H]2[C@H](CC[C@@H]3[C@@H]2CC[C@]2(C)[C@@H](C(=O)Cn4cnn(-c5cc(F)nc(F)c5)c4=O)CC[C@@H]32)C1 [Compound 41] : 31300

* * *

- Method: In vitro liver microsomal stability assay, rat
- Assay type: in vitro ADME
- Study Conditions: Rat liver microsomes 0.5 mg/mL, NADPH
- Procedure: 1) Preparation of working solutions of test samples: The test samples were diluted with acetonitrile to 100 M. 2) Preparation of a working solution of liver microsomes: liver microsomes were diluted with 100 mM phosphate-buffered saline to 0.56 mg/mL. […] 5) After the reaction was stopped, each sample was vortexed for 30 s and then centrifuged at 13,500 rpm for 10 min. […] The mixture was well mixed by vortexing and analyzed by LC-MS/MS. […]
Entries and their measured Remaining amount % at 60 min follow.

The following compounds have reported results that may help.
INSERT INTO results (compound, reported_result) VALUES
  ('C[C@@]1(O)CC[C@H]2[C@H](CC[C@@H]3[C@@H]2CC[C@]2(C)[C@@H](C(=O)Cn4cnn(-c5cccc(N)c5)c4=O)CC[C@@H]32)C1 [Compound 22]', '8.9%'),
  ('C[C@@]1(O)CC[C@H]2[C@H](CC[C@@H]3[C@@H]2CC[C@]2(C)[C@@H](C(=O)Cn4cnn(-c5ccnc(OC(F)(F)F)c5)c4=O)CC[C@@H]32)C1 [Compound 38]', '82.9%'),
  ('COCCn1ncn(CC(=O)[C@H]2CC[C@H]3[C@@H]4CC[C@@H]5C[C@](C)(O)CC[C@@H]5[C@H]4CC[C@]23C)c1=O [Compound 31]', '2.1%'),
  ('C[C@@]1(O)CC[C@H]2[C@H](CC[C@@H]3[C@@H]2CC[C@]2(C)[C@@H](C(=O)Cn4ccn(-c5cccc(F)c5)c4=O)CC[C@@H]32)C1 [Compound 11]', '9.24%'),
  ('C[C@@]1(O)CC[C@H]2[C@H](CC[C@@H]3[C@@H]2CC[C@]2(C)[C@@H](C(=O)Cn4cnn(-c5cc(Cl)ccn5)c4=O)CC[C@@H]32)C1 [Compound 26]', '12.7%');

Measured Remaining amount % at 60 min, C[C@@]1(O)CC[C@H]2[C@H](CC[C@@H]3[C@@H]2CC[C@]2(C)[C@@H](C(=O)Cn4cnn(-c5ccnc(OCC(F)(F)F)c5)c4=O)CC[C@@H]32)C1 [Compound 39] : 90.6%

* * *

- Method: In vitro liver microsomal stability assay, human
- Format: in vitro ADME
- Study Conditions: Human liver microsomes
Group membership follows half-life at 1 µM per the scheme low bracket: < 0.9 h; middle bracket: ≥ 0.9 h and < 2 h; high bracket: ≥ 2 h

The examples below pair each entry with its known result.
INSERT INTO assay_data (sample_smiles, label_value) VALUES
  ('C[C@@]1(O)CC[C@H]2[C@H](CC[C@@H]3[C@@H]2CC[C@]2(C)[C@@H](C(=O)Cn4cnn(-c5cccc(F)n5)c4=O)CC[C@@H]32)C1', 'middle bracket'),
  ('CC(C)(C)n1ncn(CC(=O)[C@H]2CC[C@H]3[C@@H]4CC[C@@H]5C[C@](C)(O)CC[C@@H]5[C@H]4CC[C@]23C)c1=O', 'middle bracket'),
  ('C[C@@]1(O)CC[C@@]2(C)[C@@H](CC[C@@H]3[C@@H]2CC[C@]2(C)[C@@H](C(=O)Cn4cnn(-c5cccc(F)c5)c4=O)CC[C@@H]32)C1', 'high bracket'),
  ('C[C@@]1(O)CC[C@H]2[C@H](CC[C@@H]3[C@@H]2CC[C@]2(C)[C@@H](C(=O)Cn4cnn(-c5ccc(F)cc5F)c4=O)CC[C@@H]32)C1', 'low bracket'),
  ('C[C@@]1(O)CC[C@H]2[C@H](CC[C@@H]3[C@@H]2CC[C@]2(C)[C@@H](C(=O)Cn4cnn(-c5cccc(F)c5)c4=O)CC[C@@H]32)C1', 'high bracket'),
  ('COCCn1ncn(CC(=O)[C@H]2CC[C@H]3[C@@H]4CC[C@@H]5C[C@](C)(O)CC[C@@H]5[C@H]4CC[C@]23C)c1=O', 'low bracket'),
  ('C[C@@]1(O)CC[C@H]2[C@H](CC[C@@H]3[C@@H]2CC[C@]2(C)[C@@H](C(=O)Cn4cnn(-c5ccccc5F)c4=O)CC[C@@H]32)C1', 'low bracket'),
  ('C[C@@]1(O)CC[C@H]2[C@H](CC[C@@H]3[C@@H]2CC[C@]2(C)[C@@H](C(=O)Cn4cnn(-c5cc(F)ccc5F)c4=O)CC[C@@H]32)C1', 'middle bracket');

Now consider a different compound.
Problem: Band for the recorded half-life at 1 µM of C[C@@]1(O)CC[C@H]2[C@H](CC[C@@H]3[C@@H]2CC[C@]2(C)[C@@H](C(=O)Cn4cnn(-c5ccc(F)cc5)c4=O)CC[C@@H]32)C1 ?
Solution: middle bracket
